system: T1, mouse PAI-1 (mouse, UniProt P22777 24-401)
T1 sequence: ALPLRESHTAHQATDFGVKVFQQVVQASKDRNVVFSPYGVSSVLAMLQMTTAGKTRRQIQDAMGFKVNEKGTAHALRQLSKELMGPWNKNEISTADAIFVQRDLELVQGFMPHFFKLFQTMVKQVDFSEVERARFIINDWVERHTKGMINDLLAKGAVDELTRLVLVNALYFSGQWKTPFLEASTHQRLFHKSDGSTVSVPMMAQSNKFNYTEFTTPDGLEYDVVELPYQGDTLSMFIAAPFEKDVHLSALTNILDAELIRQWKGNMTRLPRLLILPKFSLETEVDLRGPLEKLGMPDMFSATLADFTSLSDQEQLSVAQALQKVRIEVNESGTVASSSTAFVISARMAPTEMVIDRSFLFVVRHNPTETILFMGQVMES
assay_name: cell-based or functional assay
assay_readout: Chromogenic (IC50 in nM) mouse
Respond with the bare value in nM.

Task item: Field request: Chromogenic (IC50 in nM) mouse | item: Antibody 24 scFv (scFv) QVQLQQSGAEVKKPGSSVKVSCKASGGTFSSYAISWVRQAPGQGLEWMGGIIPTFVTANYAQKFQGRVSITADESTSTAYMELSGLRSEDTAVYYCAREKRQWLEGHFDYWGRGTPVTVSSDIQMTQSPSFLSASIGDRVTITCRASEGIYHALAWYQQKPGKAPKLLIYRASSLASGAPSRFSGSGSGTDFTLTISSLQPDDFATYYCQQYSNYPLTFGGGTKLEIK
Reply: 140

Task item: What do we get for Antibody 01 scFv (scFv) QVQLVQSGAEVKKPGSSVKVSCKASGGTFSSYAISWVRQAPGQGLEWMGGIIPIFGTANYAQKFQGRVTITADESTSTAYMELSSLRSEDTAVYYCAREKRQWLEGHFDYWGRGTLVTVSSDIQMTQSPSTLSASVGDRVTITCRASEGIYRSLAWYQQKPGKAPKLLIYKASSLASGVPSRFSGSGSGTEFTLTISSLQPDDFATYYCQQYSNYPLTFGGGTKVEIK ?
Reply: 28.3

Task item: What do we get for Antibody 19 scFv (scFv) QVQLQQSGAEVKKPGSSVKVSCKASGGTFSSYAISWVRQAPGQGLEWMGGIIPIFDTANYAQKFQGRVTITADESTSTAYMELSGLRSEDTAVYYCARERRQWLEGHFDYWGRGTPVTVSSDIRMTQSPSFLSASIGDRVTITCRASEGIYHELAWYQQKPGKAPKLLIYRASSLASGAPSRFSGSGSGTEFTLTISSLQPDDFATYYCQQYSNYPLTFGGGTKLEIK ?
Reply: 6.4
